assay.comment: PET hydrolysis product formed (TPA+MHET+BHET, UV-Vis) per mg enzyme (mmol/mg enzyme); higher = more PET depolymerisation activity; extreme values may be limits of the assay
condition.set: PET substrate: aFilm; 60 °C; pH 9.5; 24 h
measured.metric: PET hydrolysis product formed

>>> result_number("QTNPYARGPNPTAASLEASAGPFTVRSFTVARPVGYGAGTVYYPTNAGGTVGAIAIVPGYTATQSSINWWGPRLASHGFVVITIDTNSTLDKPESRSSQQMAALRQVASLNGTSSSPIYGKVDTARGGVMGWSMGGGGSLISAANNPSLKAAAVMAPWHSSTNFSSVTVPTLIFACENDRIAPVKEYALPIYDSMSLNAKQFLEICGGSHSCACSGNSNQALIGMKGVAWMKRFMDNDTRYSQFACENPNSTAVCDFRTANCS [HotPETase]")
0.744
>>> result_number("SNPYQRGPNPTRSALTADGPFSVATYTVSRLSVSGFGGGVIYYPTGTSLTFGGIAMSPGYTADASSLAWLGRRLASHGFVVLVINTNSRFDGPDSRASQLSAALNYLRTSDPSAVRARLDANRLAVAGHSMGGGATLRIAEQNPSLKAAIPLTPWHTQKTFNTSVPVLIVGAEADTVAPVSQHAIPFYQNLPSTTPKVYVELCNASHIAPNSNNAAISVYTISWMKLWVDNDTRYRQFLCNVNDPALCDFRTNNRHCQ [LCC-ICCG DAQI]")
0.87
>>> result_number("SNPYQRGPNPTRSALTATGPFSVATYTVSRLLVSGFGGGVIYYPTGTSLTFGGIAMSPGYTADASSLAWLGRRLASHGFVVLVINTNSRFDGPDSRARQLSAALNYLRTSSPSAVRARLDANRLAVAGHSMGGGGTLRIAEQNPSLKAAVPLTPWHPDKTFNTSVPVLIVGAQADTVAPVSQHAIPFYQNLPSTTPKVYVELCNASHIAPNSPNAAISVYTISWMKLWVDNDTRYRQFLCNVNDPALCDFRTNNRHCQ [LCC-ICCG I6M]")
0.577

Each recorded value in this set is attributed to the supplement of paper PMC11196671.
